- targetUnderTest: p53 Y220C (Homo sapiens, UniProt P04637, Y220C)
- protocolText: Luciferase Reporter Assay (Luc), p53 response element, NClH1299 cells with inducible p53 Y220C
- Format: cell-based
- conditionNotes: luciferase reporter, NClH1299 inducible p53 Y220C, 6 hour; 10 uM tool compound as positive control
Counter-ions that a name gives are not always drawn.
measuredEndpoint: Emax

* CNC(=O)c1ccc(OC)c(NCC#Cc2nc3c(N[C@@H]4CN(C)C[C@@H]4F)cccn3c2SC(F)(F)F)n1 | 70 to 80%
* CNC(=O)c1ccc(NCC#Cc2nc3c(N[C@@H]4CCN(C)C[C@@H]4F)cccn3c2CC(F)(F)F)cc1 | 70 to 80%
* COc1ccc(C(N)=O)cc1NCC#Cc1nc2c(N[C@@H]3CCN(C)C[C@@H]3F)cccn2c1SC(F)(F)F | 80 to 90%
* CNC(=O)c1ccc(NCC#Cc2nc3c(N[C@@H]4CCN(C)C[C@@H]4F)cccn3c2C(F)(F)F)c(OC)c1 | < 70%
* COc1ccc(C(=O)NC2CC2)cc1NCC#Cc1nc2c(N[C@@H]3CCN(C)C[C@@H]3F)cccn2c1SC(F)(F)F | 80 to 90%
* CNC(=O)c1ccc(NCC#Cc2nc3c(N[C@@H]4CCN(C)C[C@@H]4F)cccn3c2CC(F)(F)F)c(C(F)(F)F)c1 | 70 to 80%
* CNC(=O)c1ccc(OC)c(NCC#Cc2cc3c(N[C@@H]4CCNC[C@@H]4F)cccn3c2SC(F)(F)F)c1 | > 90%
* CNC(=O)c1ccc(OC)c(NCC#Cc2nc3c(N[C@@H]4CN(C)C[C@@H]4F)cccn3c2SC(F)(F)F)c1 | 80 to 90%
* CNC(=O)c1ccc(NCC#Cc2nc3c(N[C@@H]4CN(C)C[C@@H]4F)cccn3c2SC(F)(F)F)c(OC)c1 | 80 to 90%
* COC(=O)N1CCC(Nc2cccn3c(CC(F)(F)F)c(C#CCNc4ccc(S(C)(=O)=O)cc4OC)nc23)CC1 | < 70%
* COc1cc(S(C)(=O)=O)ccc1NCC#Cc1nc2c(NC3CCN(C)CC3)cccn2c1CC(F)(F)F | < 70%
* CNC(=O)c1ccc(NCC#Cc2nc3c(N[C@@H]4CCn5cncc5C4)cccn3c2SC(F)(F)F)c(OC)c1 | 70 to 80%
* CNC(=O)c1cc(OC)c(NCC#Cc2nc3c(N[C@@H]4CCN(C)C[C@@H]4F)cccn3c2SC(F)(F)F)cn1 | 80 to 90%
* CNS(=O)(=O)c1ccc(NCC#Cc2nc3c(N[C@@H]4CCN(C)C[C@@H]4F)cccn3c2CC(F)(F)F)c(OC)c1 | 70 to 80%
* COc1cc(C(=O)N2CCC2)ccc1NCC#Cc1nc2c(N[C@@H]3CCN(C)C[C@@H]3F)cccn2c1SC(F)(F)F | 80 to 90%
* CNC(=O)c1ccc(OC)c(NCC#Cc2nc3c(N[C@@H]4CCNC[C@@H]4F)cccn3c2CC(F)(F)F)c1 | < 70%
* CNC(=O)c1cnc(OC)c(NCC#Cc2nc3c(N[C@@H]4CCN(C)C[C@@H]4F)cccn3c2SC(F)(F)F)c1 | 80 to 90%
* CNC(=O)c1ccc(OC)c(NCC#Cc2nc3c(N[C@@H]4CCN(C)C[C@@H]4F)cccn3c2SC(F)(F)F)n1 | 80 to 90%
* CNC(=O)c1ccc(NCC#Cc2nc3c(NC4CCN(C)CC4)cc(NC(=O)C(F)Cl)cn3c2CC(F)(F)F)c(OC)c1 (stereo not shown) [Example 43, formic acid salt] | < 70%
* COc1cc(S(C)(=O)=O)ccc1NCC#Cc1nc2c(NC3CCS(=O)(=O)CC3)cccn2c1CC(F)(F)F | < 70%
* CN1CC[C@@H](Nc2cccn3c(CC(F)(F)F)c(C#CCN)nc23)[C@@H](F)C1 | < 70%
* CNC(=O)c1ccc(NCC#Cc2nc3c(N[C@H]4Cc5cncn5C4)cccn3c2SC(F)(F)F)c(OC)c1 | 70 to 80%
* CCOc1c(C#CCNc2ccc(C(=O)NC)cc2OC)nc2c(N[C@@H]3CCN(C)C[C@@H]3F)cccn12 | < 70%
* CNC(=O)c1ccc(NCC#Cc2nc3c(N[C@@H]4CCN(C)C[C@@H]4F)cccn3c2NC)c(OC)c1 | < 70%
* CN1CC[C@@H](Nc2cccn3c(CC(F)(F)F)c(C#CCNc4ccc(S(C)(=O)=O)cc4F)nc23)[C@@H](F)C1 | 70 to 80%
* CNC(=O)c1ccc(NCC#Cc2nc3c(N[C@@H]4CCN(C)C[C@@H]4F)cccn3c2CC(F)(F)F)c(C#N)c1 | 80 to 90%
* COc1cc(S(C)(=O)=O)ccc1NCC#Cc1nc2c(N[C@@H]3CCN(C)C[C@@H]3F)cccn2c1CC(F)(F)F | 70 to 80%
* COc1cc(S(C)(=O)=O)ccc1NCC#Cc1nc2c(N[C@@H]3CCNC[C@@H]3F)cccn2c1SC(F)(F)F | 70 to 80%
